Data provenance is patent US20190112365A1.

assayed_system: T1, Human Tau 2N4R, wild type, recombinant full length (human, UniProt P10636 2-758)
T1 construct: Full length 2N4R isoform; monomer in SPR and ELISA; heparin-induced aggregates or seeds in the functional assays; also called Tau441; Tau-441
T1 sequence (P10636 other isoform, or with tags, fused parts or gaps limits assumed): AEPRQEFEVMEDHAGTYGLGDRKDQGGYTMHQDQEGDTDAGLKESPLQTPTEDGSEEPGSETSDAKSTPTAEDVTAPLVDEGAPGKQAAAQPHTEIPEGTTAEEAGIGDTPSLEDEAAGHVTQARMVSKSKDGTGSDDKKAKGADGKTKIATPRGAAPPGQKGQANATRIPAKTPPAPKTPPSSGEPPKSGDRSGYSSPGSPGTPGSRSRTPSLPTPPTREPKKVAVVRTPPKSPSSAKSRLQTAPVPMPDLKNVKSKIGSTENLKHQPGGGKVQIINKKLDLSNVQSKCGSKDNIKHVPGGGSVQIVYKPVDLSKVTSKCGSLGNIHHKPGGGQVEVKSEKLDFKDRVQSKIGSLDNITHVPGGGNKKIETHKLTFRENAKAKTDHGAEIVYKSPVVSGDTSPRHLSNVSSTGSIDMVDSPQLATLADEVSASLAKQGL
experiment: SPR BIAcore, mAb captured by anti-human IgG, Tau flowed, 1:1 Langmuir
reported_metric: Kd (nM)
Report as a plain number; the unit nM is understood.

>  <binder>
7G6-HCzu5-LCzu7 (antibody, human IgG1, kappa, V domains shown, humanized, human IgG1 kappa) VH: QVQLVQSGAEVKKPGASVKVSCKASGYTFTTYWITWVRQAPGQGLEWMGDIYPGSSISNYNEKFKSRVTMTVDTSTSTAYMELSSLRSEDTAVYYCAREDGYDAWFAYWGQGTLVTVSS VL: DVVMTQSPLSLPVTLGQPASISCRSSQSILHSNGNTYLEWFQQRPGQSPRRLISKVSNRFSGVPDRFSGSGSGTDFTLKISRVEAEDVGVYYCFQGSHVPFTFGQGTKLEIKR

>  <Kd (nM)>
0.0968

$$$$

INPUT: Quick one: Kd of 7G6-HCzu1-LCzu2 (antibody, human IgG1, kappa, V domains shown, humanized, human IgG1 kappa) VH: QVQLVQSGAEVKKPGASVKVSCKASGYTFTTYWITWVRQAPGQGLEWMGDIYPGSSICNYNEKFKSRVTMTRDTSTSTVYMELSSLRSEDTAVYYCAREDGYDAWFAYWGQGTLVTVSS VL: DVVMTQSPLSLPVTLGQPASISCRSSQSILHSNGNTYLEWYQQRPGQSPRLLICKVSNRFSGVPDRFSGSGSGTDFTLKISRVEAEDVGVYYCFQGSHVPFTFGQGTKLEIKR ?
OUTPUT: 0.11
